# credit: patent US20250011363A1

Target: acetylcholine receptor protein
Experiment: SPR (Biacore 3000), receptor immobilised on CM5 chip, peptide in solution; given as 'affinity'
metricName: Kd (µM)
Give bare numbers, in µM.

Measured Kd, RKSLLR [Espep2-6mer] : 57
